Entry source: PubChem BioAssay (NCI)

- Test system: SK-MEL-2 melanoma
- PROTOCOL: NCI tumour cell line growth inhibition, 48 h; in the data active = GI50 below about 0.43 µM; inactive = the rest
Outcomes: true for active, false for inactive

>>> df
                            compound_smiles  class_label
0            C/C(=N\NC(=S)N1CCCCC1)c1ccccn1        false
1  COCCNCc1ccc(-c2cc3nccc(Oc4ccc(NC(=S)NC(=O)Cc5ccc(F)cc5)cc4F)c3s2)nc1        false
2          CCOC(=O)c1ccc(NC(=O)Nc2nncs2)cc1        false
3  O=[N+]([O-])c1cccc2nc3ccccc3c(NCCCn3ccnc3[N+](=O)[O-])c12         true
4  CCN(CC)c1ccc(/C=N/NC(=O)CSc2nc3ccccc3c(=O)n2CCc2ccc(S(N)(=O)=O)cc2)c(O)c1        false
